system: 14-3-3γ (Homo sapiens, UniProt P61981)
Construct: made in house; host or cells: E. coli NiCo21 (DE3)
experiment.notes: Isothermal titration calorimetry (ITC) of 14-3-3 binding to peptide
run.conditions: Table S6 (unit as in Table S5); ITC, 25 °C; run 1
Where a SMILES comes first, the peptide text is derived from it. [ ]: non-standard residue; d: D form. ξ: configuration not given here. Phe(4-NO2) = N[C@@H](Cc1ccc([N+](=O)[O-])cc1)C(=O)O; ξAla(4-thiazolyl) = NC(Cc1cscn1)C(=O)O; pS = N[C@@H](COP(=O)(O)O)C(=O)O; β3hS = N[C@@H](CO)CC(=O)O; Nva = CCC[C@H](N)C(=O)O; βAla = NCCC(=O)O

>  <molecule>
CCC[C@H](NC(=O)[C@H](N)CCCCN)C(=O)N[C@@H](Cc1ccc([N+](=O)[O-])cc1)C(=O)NC(Cc1cscn1)C(=O)N[C@@H](COP(=O)(O)O)C(=O)N[C@@H](Cc1ccc([N+](=O)[O-])cc1)C(=O)N[C@@H](CO)CC(=O)NCCC(=O)N[C@@H](C)C(=O)N[C@@H](CCCCN)C(N)=O (stereo partly drawn) [5c] (H-[dK][Nva][Phe(4-NO2)][ξAla(4-thiazolyl)][pS][Phe(4-NO2)][β3hS][βAla]AK-NH2; N-terminus and C-terminus assumed)

>  <Kd>
3,48E-06 M

$$$$

----------
# key: entry, value: Fold change to 1
system: 14-3-3γ (Homo sapiens)
Construct: made in house; host or cells: E. coli NiCo21 (DE3)
experiment.notes: Fluorescence anisotropy (FA) binary binding study: 14-3-3 titrated to fluorescein-labelled peptide
run.conditions: Table S4; FA Kd / Kd of 1; replicate 1
Where a SMILES comes first, the peptide text is derived from it. [ ]: non-standard residue; d: D form. ξ: configuration not given here. Phe(4-NO2) = N[C@@H](Cc1ccc([N+](=O)[O-])cc1)C(=O)O; ξAla(4-thiazolyl) = NC(Cc1cscn1)C(=O)O; pS = N[C@@H](COP(=O)(O)O)C(=O)O; β3hS = N[C@@H](CO)CC(=O)O; Nva = CCC[C@H](N)C(=O)O; βAla = NCCC(=O)O
quantity.kind: Fold change to 1

>  <compound>
CCC[C@H](NC(=O)[C@H](N)CCCCN)C(=O)N[C@@H](Cc1ccc([N+](=O)[O-])cc1)C(=O)NC(Cc1cscn1)C(=O)N[C@@H](COP(=O)(O)O)C(=O)N[C@@H](Cc1ccc([N+](=O)[O-])cc1)C(=O)N[C@@H](CO)CC(=O)NCCC(=O)N[C@@H](Cc1ccc(O)cc1)C(=O)N[C@@H](CCCCN)C(N)=O (stereo partly drawn) [5a] (H-[dK][Nva][Phe(4-NO2)][ξAla(4-thiazolyl)][pS][Phe(4-NO2)][β3hS][βAla]YK-NH2; N-terminus and C-terminus assumed)

>  <recorded.value>
33.2

$$$$
>  <compound>
CCC[C@H](NC(=O)[C@H](N)CCCCN)C(=O)N[C@@H](Cc1ccc([N+](=O)[O-])cc1)C(=O)NC(Cc1cscn1)C(=O)N[C@@H](COP(=O)(O)O)C(=O)N[C@@H](Cc1ccc(O)cc1)C(=O)N[C@@H](CO)CC(=O)NCCC(=O)N[C@@H](Cc1ccc([N+](=O)[O-])cc1)C(=O)N[C@@H](CCCCN)C(N)=O (stereo partly drawn) [4a] (H-[dK][Nva][Phe(4-NO2)][ξAla(4-thiazolyl)][pS]Y[β3hS][βAla][Phe(4-NO2)]K-NH2; N-terminus and C-terminus assumed)

>  <recorded.value>
0.9

$$$$
>  <compound>
CCC[C@H](NC(=O)[C@H](N)CCCCN)C(=O)N[C@@H](Cc1ccc([N+](=O)[O-])cc1)C(=O)NC(Cc1cscn1)C(=O)N[C@@H](COP(=O)(O)O)C(=O)N[C@@H](C)C(=O)N[C@@H](CO)CC(=O)NCCC(=O)N[C@@H](Cc1ccc([N+](=O)[O-])cc1)C(=O)N[C@@H](CCCCN)C(N)=O (stereo partly drawn) [4c] (H-[dK][Nva][Phe(4-NO2)][ξAla(4-thiazolyl)][pS]A[β3hS][βAla][Phe(4-NO2)]K-NH2; N-terminus and C-terminus assumed)

>  <recorded.value>
24.0

$$$$
>  <compound>
CCC[C@H](NC(=O)[C@H](N)CCCCN)C(=O)N[C@@H](Cc1ccc([N+](=O)[O-])cc1)C(=O)N[C@@H](C)C(=O)N[C@@H](COP(=O)(O)O)C(=O)N[C@@H](Cc1ccc([N+](=O)[O-])cc1)C(=O)N[C@@H](CO)CC(=O)NCCC(=O)N[C@@H](Cc1ccc([N+](=O)[O-])cc1)C(=O)N[C@@H](CCCCN)C(N)=O [3a] (H-[dK][Nva][Phe(4-NO2)]A[pS][Phe(4-NO2)][β3hS][βAla][Phe(4-NO2)]K-NH2; N-terminus and C-terminus assumed)

>  <recorded.value>
1.9

$$$$
>  <compound>
CCC[C@H](NC(=O)[C@H](N)CCCCN)C(=O)N[C@@H](Cc1ccc([N+](=O)[O-])cc1)C(=O)NC(Cc1cscn1)C(=O)N[C@@H](COP(=O)(O)O)C(=O)N[C@@H](Cc1ccc([N+](=O)[O-])cc1)C(=O)N[C@@H](CO)CC(=O)NCCC(=O)N[C@@H](C)C(=O)N[C@@H](CCCCN)C(N)=O (stereo partly drawn) [5c] (H-[dK][Nva][Phe(4-NO2)][ξAla(4-thiazolyl)][pS][Phe(4-NO2)][β3hS][βAla]AK-NH2; N-terminus and C-terminus assumed)

>  <recorded.value>
62.1

$$$$

----------
system: 14-3-3γ (Homo sapiens, UniProt P61981)
Construct: made in house; host or cells: E. coli NiCo21 (DE3)
Sequence (P61981 1-247): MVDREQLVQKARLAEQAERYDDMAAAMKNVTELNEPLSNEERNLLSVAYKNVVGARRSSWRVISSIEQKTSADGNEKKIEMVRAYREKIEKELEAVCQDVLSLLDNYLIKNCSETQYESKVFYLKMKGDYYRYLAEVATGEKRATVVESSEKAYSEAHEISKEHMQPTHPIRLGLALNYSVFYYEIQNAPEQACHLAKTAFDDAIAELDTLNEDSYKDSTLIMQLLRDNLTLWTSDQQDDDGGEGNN
experiment.notes: Isothermal titration calorimetry (ITC) of 14-3-3 binding to peptide
run.conditions: Table S5; ΔG of peptide minus ΔG of peptide 1, ITC; mean of n = 2
Where a SMILES comes first, the peptide text is derived from it. [ ]: non-standard residue; d: D form. ξ: configuration not given here. Phe(4-NO2) = N[C@@H](Cc1ccc([N+](=O)[O-])cc1)C(=O)O; ξAla(4-thiazolyl) = NC(Cc1cscn1)C(=O)O; pS = N[C@@H](COP(=O)(O)O)C(=O)O; β3hS = N[C@@H](CO)CC(=O)O; Nva = CCC[C@H](N)C(=O)O; βAla = NCCC(=O)O

>  <compound>
CCC[C@H](NC(=O)[C@H](N)CCCCN)C(=O)N[C@@H](Cc1ccc([N+](=O)[O-])cc1)C(=O)NC(Cc1cscn1)C(=O)N[C@@H](COP(=O)(O)O)C(=O)N[C@@H](Cc1ccc([N+](=O)[O-])cc1)C(=O)N[C@@H](CO)CC(=O)NCCC(=O)N[C@@H](Cc1ccc(O)cc1)C(=O)N[C@@H](CCCCN)C(N)=O (stereo partly drawn) [5a] (H-[dK][Nva][Phe(4-NO2)][ξAla(4-thiazolyl)][pS][Phe(4-NO2)][β3hS][βAla]YK-NH2; N-terminus and C-terminus assumed)

>  <unit.descriptor>
kcal/mol

>  <ΔΔG to 1>
2.2

$$$$
>  <compound>
CCC[C@H](NC(=O)[C@H](N)CCCCN)C(=O)N[C@@H](Cc1ccc([N+](=O)[O-])cc1)C(=O)NC(Cc1cscn1)C(=O)N[C@@H](COP(=O)(O)O)C(=O)N[C@@H](Cc1ccc(O)cc1)C(=O)N[C@@H](CO)CC(=O)NCCC(=O)N[C@@H](Cc1ccc([N+](=O)[O-])cc1)C(=O)N[C@@H](CCCCN)C(N)=O (stereo partly drawn) [4a] (H-[dK][Nva][Phe(4-NO2)][ξAla(4-thiazolyl)][pS]Y[β3hS][βAla][Phe(4-NO2)]K-NH2; N-terminus and C-terminus assumed)

>  <unit.descriptor>
kcal/mol

>  <ΔΔG to 1>
0.4

$$$$
>  <compound>
CCC[C@H](NC(=O)[C@H](N)CCCCN)C(=O)N[C@@H](Cc1ccc([N+](=O)[O-])cc1)C(=O)NC(Cc1cscn1)C(=O)N[C@@H](COP(=O)(O)O)C(=O)N[C@@H](C)C(=O)N[C@@H](CO)CC(=O)NCCC(=O)N[C@@H](Cc1ccc([N+](=O)[O-])cc1)C(=O)N[C@@H](CCCCN)C(N)=O (stereo partly drawn) [4c] (H-[dK][Nva][Phe(4-NO2)][ξAla(4-thiazolyl)][pS]A[β3hS][βAla][Phe(4-NO2)]K-NH2; N-terminus and C-terminus assumed)

>  <unit.descriptor>
kcal/mol

>  <ΔΔG to 1>
1.7

$$$$
>  <compound>
CCC[C@H](NC(=O)[C@H](N)CCCCN)C(=O)N[C@@H](Cc1ccc([N+](=O)[O-])cc1)C(=O)N[C@@H](C)C(=O)N[C@@H](COP(=O)(O)O)C(=O)N[C@@H](Cc1ccc([N+](=O)[O-])cc1)C(=O)N[C@@H](CO)CC(=O)NCCC(=O)N[C@@H](Cc1ccc([N+](=O)[O-])cc1)C(=O)N[C@@H](CCCCN)C(N)=O [3a] (H-[dK][Nva][Phe(4-NO2)]A[pS][Phe(4-NO2)][β3hS][βAla][Phe(4-NO2)]K-NH2; N-terminus and C-terminus assumed)

>  <unit.descriptor>
kcal/mol

>  <ΔΔG to 1>
0.3

$$$$
